For each record, write down the corresponding MIC.
Tested on: Staphylococcus aureus
Assay: Minimum inhibitory concentration (MIC) against methicillin-resistant Staphylococcus aureus (MRSA) OC2878
Assay type: functional
Answers are plain numbers, in µg/mL.

| compound | target or test system | MIC (µg/mL) |
| --- | --- | --- |
| CC(=O)NC[C@H]1CN(c2ccc(C3=NOC(CN4CCOCC4)C3)c(F)c2)C(=O)O1 (stereo not given in full) | Staphylococcus aureus | 8 |
| COCCNC(=O)C1CC(c2ccc(N3C[C@H](CNC(C)=O)OC3=O)cc2F)=NO1 (stereo not given in full) | Staphylococcus aureus | 16 |

Give me MIC for each of these compounds, listed below.
1. COC(=O)c1cc(-c2ccc(N3C[C@H](CNC(C)=O)OC3=O)cc2F)no1
2. CC(=O)NC[C@H]1CN(c2ccc(C3=NOC(CN(C)C)C3)c(F)c2)C(=O)O1 (stereo not given in full)
3. CC(=O)NC[C@H]1CN(c2ccc(C3=NOC(C(=O)N4CCOCC4)C3)c(F)c2)C(=O)O1 (stereo not given in full)

1: 4; 2: 8; 3: 8
